# Test system: HCT-15 colon
# ASSAY_PROCEDURE: NCI-60 one-dose screen, 48 h
# SETTINGS: 10 µM unless noted
About 83,000 compounds went through this panel and 20% of them were active in at least one assay; those are over-represented in the sample as a whole. The source made the active and inactive calls. Rule for the calls: active = growth percent below 10; inactive = the rest.
Permitted responses: yes for active, no for inactive

[[record]]
compound = "CC(C)[C@@]12C[C@@H](OC(=O)[C@H]3CO3)[C@@](C)(O1)[C@@H]1CC[C@@H](C)[C@H]1[C@@H]2OC(=O)/C=C/c1ccccc1"
category_label = "no"

[[record]]
compound = "Cc1ccccc1C1CC(=O)c2ccccc2C1C (stereo unspecified)"
category_label = "no"


Now for a further compound.
Could you kindly confirm the outcome this assay logged for "Cc1c(C(=O)Nc2ccccc2F)sc2c(=O)[nH]cnc12" ? no

---

# Test system: UACC-62 melanoma
# ASSAY_PROCEDURE: NCI-60 one-dose screen, 48 h (100 = growth as untreated, 0 = no growth, -100 = all killed)
# SETTINGS: 10 µM unless noted
This is part of a sample that, as a whole, favours compounds with a hit. Of some 83,000 tested, about 20% had one in any assay.
ATTRIBUTE_MEASURED: growth (%)
A number alone suffices; assume %.

[[record]]
compound = "CC1=C(O)C(=O)CC1"
attribute_measured = "growth"
output_unit = "%"
quantitative_readout = 110

[[record]]
compound = "Clc1ccc(Cl)c(N=Cc2ccc3c(c2)OCO3)c1"
attribute_measured = "growth"
output_unit = "%"
quantitative_readout = 103

[[record]]
compound = "COc1ccc(CNc2c3ccccc3nc3ccccc23)cc1F"
attribute_measured = "growth"
output_unit = "%"
quantitative_readout = 42.4

[[record]]
compound = "COc1ccc(-c2conc2-n2nc(-c3ccccc3)nc2-c2ccccc2)cc1"
attribute_measured = "growth"
output_unit = "%"
quantitative_readout = 103

[[record]]
compound = "CCNC(=O)c1ccc2c(c1)nc(-c1ccc(Cl)cc1)n2-c1cc(C(C)(C)C)[nH]n1"
attribute_measured = "growth"
output_unit = "%"
quantitative_readout = 38.6


Can you share its growth? I mean this compound: "O=C(O)c1ccccc1Oc1cc(-c2ccco2)nc(OCCN2CCOCC2)n1" 98.9

What would you report for "COc1ccc(-c2nc3ccccc3n3cccc23)cc1" ? 88.3

What would you report for "COc1ccc(NC(=O)Cn2c(=O)sc3c(-c4ccc(Cl)cc4)cc(-c4ccc(Cl)cc4)nc32)cc1" ? 85.6

What would you report for "CN(C)CCCN1c2ccccc2CCc2ccccc21" ? 94

What would you report for "COc1ccc(/C=C(\C#N)c2cc(OC)c(OC)c(OC)c2)cc1" ? 36.2

What would you report for CN1C(=O)C(C2=NNC(c3ccccc3C(=O)O)C2)C(=O)N(C)C1=O (stereo unspecified) ? 96.2

---

# Tested on: SK-MEL-28 melanoma
# ASSAY_PROCEDURE: NCI-60 one-dose screen, 48 h (100 = growth as untreated, 0 = no growth, -100 = all killed)
# SETTINGS: 10 µM unless noted
Compounds without any hit were thinned out: in the full panel of roughly 83,000, 20% have a hit.
ATTRIBUTE_MEASURED: growth (%)
A number alone suffices; assume %.

Recorded results for 6 compounds are shown here.
[[record]]
structure_smiles = "C=C(C)[C@@H]1CC[C@]2(C(=O)NS(=O)(=O)c3ccccc3)CC[C@]3(C)[C@H](CC[C@@H]4[C@@]5(C)CC[C@H](OC(=O)NS(=O)(=O)c6ccccc6)C(C)(C)[C@@H]5CC[C@]43C)[C@@H]12"
experimental_system = "SK-MEL-28 melanoma"
output_unit = "%"
quantitative_readout = -16.3

[[record]]
structure_smiles = "CS(=O)(=O)c1ccc(Cl)c([N+](=O)[O-])c1"
experimental_system = "SK-MEL-28 melanoma"
output_unit = "%"
quantitative_readout = 127

[[record]]
structure_smiles = "NNC(=O)CSc1nc2scc(-c3ccccc3)c2c(=O)n1-c1ccccc1"
experimental_system = "SK-MEL-28 melanoma"
output_unit = "%"
quantitative_readout = 111

[[record]]
structure_smiles = "Cc1cc(Nc2c3ccccc3nc3ccccc23)ccc1NS(C)(=O)=O"
experimental_system = "SK-MEL-28 melanoma"
output_unit = "%"
quantitative_readout = 57.2

[[record]]
structure_smiles = "COc1cc(-c2nc(-c3ccc(-c4nc5ccc(F)cc5[nH]4)cc3)no2)cc(OC)c1OC"
experimental_system = "SK-MEL-28 melanoma"
output_unit = "%"
quantitative_readout = 60.6

[[record]]
structure_smiles = "Clc1ccccc1CNc1c2ccccc2nc2ccccc12"
experimental_system = "SK-MEL-28 melanoma"
output_unit = "%"
quantitative_readout = 50.5


Can you share its growth? I mean this compound: "CC(C)(CCc1ccccn1)C(=O)CCCc1ccccn1" 115

What would you report for "COc1cc(Nc2ncccc2/C=C/C(=O)c2cc(OC)c(OC)c(OC)c2)cc(OC)c1OC" ? 90.5

What would you report for "COc1ccc(NC(=O)Cn2c(=O)sc3c(-c4ccc(Cl)cc4)cc(-c4ccc(Cl)cc4)nc32)cc1" ? 103

The values you see were collected from PubChem BioAssay (NCI).
